Provenance of the data: PubChem BioAssay AID2314

- experimentalDetails: Cycloheximide Counterscreen for Small Molecule Inhibitors of Shiga Toxin; note: read at 38.3 µM for the half of the compounds with a filed dose
- measurementSetup: cell reporter, cycloheximide protein synthesis inhibition counterscreen; hits give high values
In all, about 300,000 compounds went through this assay and about 37,000 (12%) were called active. What follows is part of a selection rich in actives, with near analogues and random picks from the rest.
# max response values compiled below
measure: max response

molecule	measure	endpointResult
N#Cc1ccc(C(=O)Nc2cccc3cccnc23)c(F)c1	max response	-0.854% (inactive)
COc1ccc(-c2noc(CSc3ccc(C)cc3)n2)cc1	max response	10.3% (inactive)
O=C(c1ccc(Cl)cc1)N1N=C(c2ccccn2)CC1(O)C(F)(F)F (stereo unspecified)	max response	-0.573% (inactive)
Cc1cc(C)n2nc(C(=O)N(C)C(c3ccccc3)c3ccccc3)nc2n1	max response	-3.94% (inactive)
Cc1cc(NC(=O)c2cnn3cccnc23)n(-c2ccccc2)n1	max response	0.387% (inactive)
Cc1ccc(Nc2cc(C)nc3c(C)ccc([N+](=O)[O-])c23)cc1	max response	0.487% (inactive)
CCOc1ccc(NC(=O)C/C(C)=N/NC(=O)Cc2cccs2)cc1	max response	11.9% (inactive)
Cc1nnsc1C(=O)NCc1c(F)cccc1Cl	max response	8.44% (inactive)
O=C(Nc1ccccc1N1CCN(c2ccccc2)CC1)c1cccc(F)c1	max response	-4.37% (inactive)
COc1ccc(S(=O)(=O)Nc2cccc3cccnc23)c(N)c1	max response	23.5% (inactive)
O=C(Nc1ccc(Cl)cn1)c1cnn2cccnc12	max response	58.9% (active)

###

In this section we review reported max response values for a set of compounds.
- experimentalDetails: Cycloheximide Counterscreen for Small Molecule Inhibitors of Shiga Toxin; note: read at 38.3 µM for the half of the compounds with a filed dose
- measurementSetup: cell reporter, cycloheximide protein synthesis inhibition counterscreen; hits give high values
The whole screen tested about 300,000 compounds, of which about 37,000 (12%) were called active. This is one part of a sample in which actives are shown more often than they occur.

compound	max response, %
Cc1cc(N2CCN(c3ccc(F)cc3)CC2)n2ncnc2n1	1.63
COc1cc2c(cc1OC)C(c1cccc([N+](=O)[O-])c1)=NCC2	-3.32
COc1ccccc1/C=C1\SC(=O)N(CCC(=O)N(C)C2CCS(=O)(=O)C2)C1=O (configuration not stated)	7.79
O=C(CCN1C(=O)c2ccccc2C1=O)NCCCn1ccnc1	4.07
COc1ccc(-c2nc3cc([N+](=O)[O-])ccc3o2)cc1OC	24
COc1ccc(NC(=O)CCN2C(=O)/C(=C/c3ccc4c(c3)OCO4)SC2=S)cc1	-1.34
O=C(CCN1C(=O)c2ccccc2C1=O)NCCN1CCOCC1	-0.442
CCc1cccc(NC(=S)N(CCN(C)C)C2CCN(C(C)C)CC2)c1	-3.94
COc1ccc(NC(=S)NC2CCS(=O)(=O)C2)cc1 (configuration not stated)	-3.34
c1csc(-c2nnc(COc3ncnc4sccc34)o2)c1	-1.52
Cc1ccc2c(c1)N(C(=O)CCC(=O)N1CCc3ccccc3C1)CCO2	13.8
COc1ccc(/C=C2\SC(=O)N(CCC(=O)NCCCn3ccnc3)C2=O)cc1	18.8
CNC(=S)N/N=C/c1ccc(OCc2ccccc2)c(Br)c1	-5.52
COc1ccc(/C=C2\SC(=O)N(CCC(=O)NC3CCS(=O)(=O)C3)C2=O)cc1 (configuration not stated)	27.8
Cc1ccc(/C=C2\SC(=S)N(CCC(=O)Nc3ccc(O)cc3)C2=O)cc1	0.318
O=[N+]([O-])c1ccc2c(c1)C(O)n1nc(-c3ccccc3)nc1S2 (configuration not stated)	-1.52
O=C(Cc1ccc(Cl)cc1)NC1CCS(=O)(=O)C1 (configuration not stated)	-0.92
Cc1ccc(/C=C2/SC(=S)N(CCC(=O)NCCCN3CCOCC3)C2=O)cc1	11.5
c1csc(-c2nnc(COc3ccc4c(c3)OCO4)o2)c1	43
O=C(CN1C(=O)S/C(=C\c2ccccc2F)C1=O)NCCCn1ccnc1	-0.628
O=C(Nc1cccnc1)c1cc([N+](=O)[O-])ccc1Cl	-2.56
Cc1nnc(-c2ccc(Oc3ccc(C)c(C)c3)c([N+](=O)[O-])c2)o1	4.56

###

- experimentalDetails: Cycloheximide Counterscreen for Small Molecule Inhibitors of Shiga Toxin; note: read at 38.3 µM for the half of the compounds with a filed dose
- measurementSetup: cell reporter, cycloheximide protein synthesis inhibition counterscreen
Screen size: about 300,000 compounds; about 37,000 (12%) were called active. Cut-off read from the data, not from the text of the source: active = max response mostly above about 13% (no sharp cut-off); inactive = mostly below about 14%. The full list was thinned out, with actives kept by preference.
Classes used: class 1 = active, class 0 = inactive

compound	assignedClass
CC(C)OCCCNC(=O)c1ccc(C2SCC(=O)N2Cc2ccco2)cc1 (centres undefined)	class 0
Fc1cccc2ncnc(OCc3ccccc3)c12	class 0
COC(=O)c1cc(C(=O)NC(C)C2CC3CCC2C3)cc([N+](=O)[O-])c1 (centres undefined)	class 0
Cc1cc(Nc2ccccc2)n(C(=O)c2ccc(N)cc2)n1	class 1
Cc1cccc(Nc2nc3c(S(=O)(=O)c4ccccc4)nnn3c3ccccc23)c1C	class 0
Cc1occc(=O)c1OCc1ccc(F)cc1	class 0
O/N=C(\C[n+]1ccccc1)c1ccc(Br)cc1	class 0
COc1ccc(S(=O)(=O)NCC(=O)NCc2cc(=O)n(C)c(=O)n2C)cc1F	class 0
O=C(N/N=C/c1cccc(OCc2ccccc2)c1)c1ccc(Br)o1	class 1
COC(=O)c1ccc(N2CCOCC2)c(NC(=O)c2ccc(Br)o2)c1	class 0
CCOCCCN(C)C1CCN(C(=O)c2oc3ccccc3c2NC(=O)COc2cccc(C)c2)CC1	class 0
Cc1cc(Nc2ccccc2)n(CCC#N)n1	class 0
CCn1c(SCC(=O)NC2CC2)nnc1-c1ccncc1	class 0
COc1cccc(/C=C2\C=C(c3ccc(C)cc3)OC2=O)c1OC(C)=O	class 0
C=CCNC(=S)NNc1ncnc2sc3c(c12)CC(C)(C)OC3	class 0
c1ccc2c(CSCc3nc4ccccc4[nH]3)cccc2c1	class 1
CCOc1ccc(NC(=S)NC(=O)/C=C/c2ccc(OC)cc2)c([N+](=O)[O-])c1	class 0
c1ccc(-c2nnc(SCc3nc4ccccc4[nH]3)o2)cc1	class 0
COc1ccc(-c2nn(C)c(=O)c3ccccc23)cc1CNC(=O)C1CCCCC1	class 0
CC(=O)NC(CC(=O)Nc1nc(-c2ccccc2)c(C(C)=O)s1)c1ccccc1 (centres undefined)	class 0
O=C(NCCc1ccccc1)C1CCC(Cn2c(=O)c3ccccc3n(Cc3cccnc3)c2=O)CC1 (centres undefined)	class 0
Nc1c(Cl)cc(-c2csc(N3CCCC3c3nc4cc(Cl)c(Cl)cc4n3CCOCCO)n2)cc1Cl (centres undefined)	class 0
COc1ccc(C(=O)COC(=O)Cn2cnc3c2c(=O)n(C)c(=O)n3C)c(OC)c1	class 0
CCOC(=O)c1c(NC(=O)C(C)Sc2c[nH]c3ccccc23)sc2c1CCC2 (centres undefined)	class 0
CCCCN(CCCC)CCNC(=O)CN1C(=O)COc2ccc(S(=O)(=O)N3CCOCC3)cc21	class 0
COc1ccc(OC(C)C(=O)NCCc2nc3ccccc3[nH]2)cc1 (centres undefined)	class 0
COc1ccc(N2CCN(S(=O)(=O)CCNC(=O)C34CC5CC(CC(C5)C3)C4)CC2)cc1	class 0
COc1ccc(C(CNC(=O)c2ccc(S(=O)(=O)Nc3ccccc3F)cc2)N(C)C)cc1 (centres undefined)	class 0
O=S(=O)(Oc1ccccc1C(=S)N1CCOCC1)c1ccc(Cl)cc1	class 0
Clc1ccccc1SCc1nc2ccccc2[nH]1	class 1
CCOc1ccccc1-c1cc(C(=O)N2CCOCC2)c2ccccc2n1	class 0
COc1ccc(S(=O)(=O)N2CCN(c3ccc(F)cc3)CC2)cc1-c1noc(C)n1	class 0
N=C(N)SCc1cccc2ccccc12	class 0
COc1cc(CN2CC(C)CC(C)C2)cc([N+](=O)[O-])c1O (centres undefined)	class 0
COc1ccc(C2NC(=S)NC3=C2CCc2ccccc23)cc1OC (centres undefined)	class 0
COc1ccc(OC)c(NC(=O)CN(C)CCOc2ccc(Br)cc2)c1	class 0
CCOC(=O)NN1C(=O)c2ccccc2NC1c1ccccc1O (centres undefined)	class 0
CCN(CC)/[N+]([O-])=N/Oc1cc(O/[N+]([O-])=N/N2CCCC2CO)c([N+](=O)[O-])cc1[N+](=O)[O-] (centres undefined)	class 0
O=C(CSc1nc2ccccc2[nH]1)c1cccs1	class 1
Cc1ccc(OCCOCCOc2ccc(Br)cc2/C=N\NC(=O)c2ccncc2)cc1	class 0
Cc1cc(C)n(C(=O)c2ccc(S(=O)(=O)N3CCCC3)cc2)n1	class 0
COc1cccc(/C=C/c2ccc3ccccc3n2)c1OC(C)=O	class 1
OC(COc1ccc(CN2CCSCC2)cc1)CN1CCCCC1 (centres undefined)	class 0
CCOc1cccc(/C=C/c2ccc3ccccc3n2)c1OC(C)=O	class 1

###

- experimentalDetails: Cycloheximide Counterscreen for Small Molecule Inhibitors of Shiga Toxin; note: read at 38.3 µM for the half of the compounds with a filed dose
- measurementSetup: cell reporter, cycloheximide protein synthesis inhibition counterscreen; hits give high values
In all, about 300,000 compounds went through this assay and about 37,000 (12%) were called active. Many of the other results were omitted from the sample, so actives are more common in it than they were.

compound	max response
COc1cccc(N2C(=O)CN(Cc3ccccc3)C2=S)c1	-1.8% (inactive)
NC(=O)c1ccccc1N=Cc1ccc2ccccc2c1	38.3% (active)
CCc1nn(CC(=O)N2CCN(CC)CC2)c(=O)c2cccn12	-0.288% (inactive)
CC1(C)CC(=O)C2=C(C1)Nc1cc(C(=O)c3ccccc3)ccc1NC2c1ccccn1 (stereo unspecified)	5.93% (inactive)
Cc1nn(-c2ccccn2)c2c1C(c1ccncc1)C1=C(CC(C)(C)CC1=O)N2 (stereo unspecified)	-5.72% (inactive)
COc1cc(C(=O)NCc2nnc(SCC(=O)Nc3nc4ccc(C)cc4s3)o2)cc(OC)c1OC	4.75% (inactive)
O=C1N/C(=C/c2cccs2)C(=O)N1Cc1ccc(F)cc1	-5.73% (inactive)
COc1cccc(-n2cc(C(=O)O)c3ccccc3c2=O)c1	-2.23% (inactive)
Cc1ccc(Cn2c(C)c3cnn(CC(=O)NCc4ccccn4)c(=O)c3c2C)cc1	-3.46% (inactive)
Cn1c(CCCOc2ccc(Cl)cc2Cl)n[nH]c1=S	16.1% (active)
O=C(N/N=C/c1cccc(O)c1)c1cc2c(ccc3ccccc32)o1	8.61% (inactive)
